# method: qHTS assay for identifying genotoxic compounds that show differential cytotoxicity against isogenic chicken DT40 cell lines with known DNA damage response pathways - wild type cell line (AID 743012); further: nearly all actives have a fitted effect of over 60% in size
# settings: DT40 wild type chicken cells viability, CellTiter-Glo, 40 h; series mostly up to 68.4 µM
Results filed as inconclusive are left out. Calls of active or inactive are those of the source. The call rests on the fitted dose curve; in most records, active means well fitted cell-killing curve with a large enough effect in the repeat runs; inconclusive means weak or mixed curves, or effect the other way; inactive means no such curve, though single readings can be large or run the other way.
Respond with a class label; see Yes (active), No (inactive)

[
  {
    "molecule": "C=C(C)C(=O)OCCO",
    "assigned.category": "No"
  },
  {
    "molecule": "CC(=O)c1ccc2c(c1)N(CCCN1CCC(CCO)CC1)c1ccccc1S2",
    "assigned.category": "Yes"
  },
  {
    "molecule": "CCC(C)c1cc(C(C)(C)C)c(O)c(C(C)(C)C)c1 (configuration not stated)",
    "assigned.category": "No"
  }
]

Which outcome was entered for the molecule O=C(Nc1ccccc1)c1ccccc1O in this test?
Yes

Which outcome was entered for the molecule C=C(C)C(=O)OCC in this test?
No

Which outcome was entered for the molecule C=C1[C@H]2CC[C@@H]3[C@H]2C(C)(C)CCC[C@]13C in this test?
No

Which outcome was entered for the molecule Cc1ncc(CO)c(C=O)c1O in this test?
No

Which outcome was entered for the molecule COc1ccc(-c2nc3ccc(C4=NNC(=O)CC4C)cc3[nH]2)cc1 (configuration not stated) in this test?
Yes

Which outcome was entered for the molecule COc1cc2c(cc1OC)C(C(C(=O)N(CCc1ccc(OC)c(OC)c1OC)CCc1ccc(OC)c(OC)c1OC)c1ccccc1)=NCC2 (configuration not stated) in this test?
Yes

Which outcome was entered for the molecule Cc1[nH]c(C)c(Cl)c(=O)c1Cl in this test?
No

Which outcome was entered for the molecule Clc1ccc2c(c1)CCc1cccnc1C2=C1CCNCC1 in this test?
Yes

Which outcome was entered for the molecule Cc1oc2c(NC(=O)c3c(Cl)cccc3Cl)cccc2c1C(C)(C)O in this test?
Yes

Which outcome was entered for the molecule O=C(O)c1ccccc1Cl in this test?
No

* * *

# tested.on: Glucocorticoid receptor (Homo sapiens) (UniProt P04150)
# Sequence (P04150 whole entry, looked up): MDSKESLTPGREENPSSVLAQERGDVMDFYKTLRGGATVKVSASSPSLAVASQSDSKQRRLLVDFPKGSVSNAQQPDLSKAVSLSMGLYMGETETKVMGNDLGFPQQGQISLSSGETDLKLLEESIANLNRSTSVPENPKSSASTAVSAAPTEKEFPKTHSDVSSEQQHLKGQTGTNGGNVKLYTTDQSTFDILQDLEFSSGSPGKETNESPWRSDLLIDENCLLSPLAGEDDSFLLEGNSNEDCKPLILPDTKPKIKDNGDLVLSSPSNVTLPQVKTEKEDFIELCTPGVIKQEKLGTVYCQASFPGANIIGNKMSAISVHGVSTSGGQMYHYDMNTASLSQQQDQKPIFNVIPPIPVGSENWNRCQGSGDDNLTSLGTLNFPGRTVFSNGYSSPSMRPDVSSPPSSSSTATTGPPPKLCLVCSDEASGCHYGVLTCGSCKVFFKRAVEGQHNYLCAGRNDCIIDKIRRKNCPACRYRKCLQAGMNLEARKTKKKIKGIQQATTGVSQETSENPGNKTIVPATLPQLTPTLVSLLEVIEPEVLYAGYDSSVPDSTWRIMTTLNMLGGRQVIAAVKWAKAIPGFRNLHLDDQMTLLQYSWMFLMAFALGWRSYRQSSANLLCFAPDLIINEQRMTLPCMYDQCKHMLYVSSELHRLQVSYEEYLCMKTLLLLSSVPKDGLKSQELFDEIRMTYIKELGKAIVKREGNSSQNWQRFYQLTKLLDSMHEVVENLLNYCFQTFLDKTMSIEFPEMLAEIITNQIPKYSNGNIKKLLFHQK
# method: qHTS assay to identify small molecule antagonists of the glucocorticoid receptor (GR) signaling pathway (AID 720692)
# settings: GR-bla HeLa, beta-lactamase FRET ratio, dexamethasone-stimulated, 18 h; series mostly up to 58.5 µM
Results filed as inconclusive are left out. The source made the active and inactive calls. Calls follow the shape of the dose curve; as a rule, active = well fitted inhibition curve with a large enough effect in the signal ratio in the repeat runs (not every such curve was filed as active); inconclusive = weak or mixed curves, or effect the other way; inactive = no such curve, though single readings can be large or run the other way; the % refers to the signal ratio.
Respond with a class label; see true for active, false for inactive

Here are 7 compounds together with their reported answers.
[
  {
    "compound": "O=C1C(O)=C(O)C(=O)C(O)=C1O",
    "assigned.category": "false"
  },
  {
    "compound": "CCC(Cl)CCC(Cl)C(Cl)CC(Cl)C(Cl)C(Cl)CCl (stereo not drawn)",
    "assigned.category": "false"
  },
  {
    "compound": "C=CC1CC2C=CC1C2 (stereo not drawn)",
    "assigned.category": "false"
  },
  {
    "compound": "Cc1c(N)cccc1[N+](=O)[O-]",
    "assigned.category": "false"
  },
  {
    "compound": "COc1ccc(C)cc1[N+](=O)[O-]",
    "assigned.category": "false"
  },
  {
    "compound": "Nc1ccccc1S(=O)(=O)c1ccccc1",
    "assigned.category": "false"
  },
  {
    "compound": "C=CC(=O)OCCOc1ccccc1",
    "assigned.category": "true"
  }
]

Now let's try a different one.
Which outcome was entered for the compound COC(=O)c1ccc(I)cc1S(=O)(=O)NC(=O)Nc1nc(C)nc(OC)n1 in this test?
false

* * *

# method: qHTS assay to identify small molecule agonists of the NFkB signaling pathway - cell viability counter screen (AID 1159515); further: nearly all actives have a fitted effect of over 55% in size
# settings: NFkB-bla ME-180 viability, CellTiter-Glo luminescence, 5 h; series mostly up to 61 µM
Records with an inconclusive call do not appear. Activity calls are given as the source filed them. The call rests on the fitted dose curve.
Respond with a class label; see true = active, false = inactive

Here are 3 molecules together with their reported answers.
[
  {
    "query.smiles": "CC(C)CC(=O)C1C(=O)c2ccccc2C1=O",
    "assigned.category": "false"
  },
  {
    "query.smiles": "CCNc1cc(O)ccc1C",
    "assigned.category": "false"
  },
  {
    "query.smiles": "CCOC(=O)c1cccnc1",
    "assigned.category": "false"
  }
]

Now let's try a different one.
Which outcome was entered for the molecule CN(Cc1ccc(C(C)(C)C)cc1)Cc1cccc2ccccc12 in this test?
true

* * *

# method: qHTS assay to identify small molecule agonists of the sonic hedgehog signaling (Shh) pathway - cell viability counter screen (AID 1259366); further: nearly all actives have a fitted effect of over 50% in size
# settings: NIH/3T3 Gli1-Luc viability, CellTiter-Fluor, 24 h; series mostly up to 92.4 µM
Results filed as inconclusive are left out. Active and inactive are the calls of the source. Calls follow the shape of the dose curve; as a rule, active = well fitted cell-killing curve with a large enough effect in the repeat runs; inconclusive = weak or mixed curves, or effect the other way; inactive = flat fitted curve, though single readings scatter.
Respond with a class label; see T (active), F (inactive)

[
  {
    "molecule": "O=C(O)CC(=O)C(=O)O",
    "assigned.category": "F"
  },
  {
    "molecule": "CCCCC(=O)OCC(=O)[C@H]1[C@H](C)C[C@H]2[C@@H]3C[C@H](F)C4=CC(=O)C=C[C@]4(C)[C@@]3(F)[C@@H](O)C[C@@]21C",
    "assigned.category": "F"
  },
  {
    "molecule": "CC(C)Cc1ccc(C(C)C(=O)OCc2ccccn2)cc1 (centres undefined)",
    "assigned.category": "F"
  },
  {
    "molecule": "C[N+](C)(C)CCOC(=O)CCC(=O)OCC[N+](C)(C)C",
    "assigned.category": "F"
  },
  {
    "molecule": "Cc1ccc(C(C)OC(=O)C2(C)CCC(C(=O)O)C2(C)C)cc1 (centres undefined)",
    "assigned.category": "F"
  },
  {
    "molecule": "OCCNCc1ccccc1",
    "assigned.category": "F"
  },
  {
    "molecule": "CC(=O)c1cccc([N+](=O)[O-])c1",
    "assigned.category": "F"
  },
  {
    "molecule": "CCCCC(CC)COC(=O)CCCCCCCCC(=O)OCC(CC)CCCC (centres undefined)",
    "assigned.category": "F"
  }
]

Which outcome was entered for the molecule O=C(OCCc1ccccc1)c1ccccc1 in this test?
F

Which outcome was entered for the molecule Nc1ccc(N)c2c1C(=O)c1ccccc1C2=O in this test?
T

Which outcome was entered for the molecule C#C[C@]1(O)CC[C@H]2[C@@H]3CCc4cc(OC5CCCC5)ccc4[C@H]3CC[C@@]21C in this test?
F

Which outcome was entered for the molecule Nc1ccccc1S(=O)(=O)c1ccccc1 in this test?
F

Which outcome was entered for the molecule COC(C)(C)CCO in this test?
F

Which outcome was entered for the molecule CO[C@@H]1[C@H](OC(=O)/C=C/C=C/C=C/C=C/C(=O)O)CC[C@]2(CO2)[C@H]1[C@@]1(C)O[C@@H]1CC=C(C)C in this test?
F

Which outcome was entered for the molecule Clc1ccc2c(c1)CCc1cccnc1C2=C1CCNCC1 in this test?
T

Which outcome was entered for the molecule C=CCOC(=O)CCC1CCCCC1 in this test?
F

Which outcome was entered for the molecule Nc1ccc([N+](=O)[O-])c(C(F)(F)F)c1 in this test?
F

Which outcome was entered for the molecule CC(C)(C)Cl in this test?
F

Which outcome was entered for the molecule CC(C)=CCC/C(C)=C/CC/C(C)=C/CO in this test?
F

* * *

# method: qHTS assay to identify small molecule antagonists of the glucocorticoid receptor (GR) signaling pathway - cell viability counter screen (AID 720693); further: nearly all actives have a fitted effect of over 55% in size
# settings: GR-bla HeLa viability, CellTiter-Glo luminescence, 18 h, with 5 nM dexamethasone present; series mostly up to 58.5 µM
Records with an inconclusive call do not appear. Calls of active or inactive are those of the source. Calls come from the whole dose curve; as a rule, active = well fitted cell-killing curve with a large enough effect in the repeat runs; inconclusive = weak or mixed curves, or effect the other way; inactive = no such curve, though single readings can be large or run the other way.
Respond with a class label; see active, inactive

Here are 3 compounds together with their reported answers.
[
  {
    "query.smiles": "CCc1c(C(=O)NN2CCCCC2)nn(-c2ccc(Cl)cc2Cl)c1-c1ccc(Br)cc1",
    "assigned.category": "active"
  },
  {
    "query.smiles": "COS(=O)(=O)C(F)(F)F",
    "assigned.category": "inactive"
  },
  {
    "query.smiles": "CCn1cc(C(=O)O)c(=O)c2cnc(N3CCNCC3)nc21",
    "assigned.category": "inactive"
  }
]

Which outcome was entered for the compound O=C1CCCCCCCCCCCC(=O)OCCO1 in this test?
inactive

Which outcome was entered for the compound CCOc1ccc(N=Nc2ccc(/C=C/c3ccc(N=Nc4ccc(OCC)cc4)cc3S(=O)(=O)O)c(S(=O)(=O)O)c2)cc1 in this test?
inactive

Which outcome was entered for the compound NCCCN1CCOCC1 in this test?
inactive

Which outcome was entered for the compound CCCOC(C(=O)OC1CCN(C)CC1)(c1ccccc1)c1ccccc1 in this test?
inactive

* * *

# method: qHTS assay for identifying genotoxic compounds that show differential cytotoxicity against isogenic chicken DT40 cell lines with known DNA damage response pathways - Rad54/Ku70 mutant cell line (AID 743015); further: nearly all actives have a fitted effect of over 60% in size
# settings: DT40 Rad54/Ku70 mutant viability, CellTiter-Glo, 40 h; series mostly up to 66.8 µM
Inconclusive results are not listed. The source made the active and inactive calls. The call rests on the fitted dose curve; in most records, active means well fitted cell-killing curve with a large enough effect in the repeat runs; inconclusive means weak or mixed curves; inactive means no such curve, though single readings can be large or run the other way.
Respond with a class label; see active, inactive

Here are 8 molecules together with their reported answers.
[
  {
    "molecule": "CCCCC(CC)CN1C(=O)C2C3C=CC(C3)C2C1=O (stereo unspecified)",
    "assigned.category": "active"
  },
  {
    "molecule": "C#C[C@]1(O)CC[C@H]2[C@@H]3CCc4cc(OC5CCCC5)ccc4[C@H]3CC[C@@]21C",
    "assigned.category": "active"
  },
  {
    "molecule": "CCCCO",
    "assigned.category": "inactive"
  },
  {
    "molecule": "O=CC1CC=CCC1 (stereo unspecified)",
    "assigned.category": "inactive"
  },
  {
    "molecule": "Nc1cc(C(=O)O)c(O)c(S(=O)(=O)O)c1",
    "assigned.category": "inactive"
  },
  {
    "molecule": "C=CCOc1ccccc1OCC(O)CNC(C)C (stereo unspecified)",
    "assigned.category": "inactive"
  },
  {
    "molecule": "c1ccc(C(O[C@H]2CCCN(CCc3ccc4c(c3)OCO4)C2)c2ccccc2)cc1",
    "assigned.category": "active"
  },
  {
    "molecule": "CC(=O)NO",
    "assigned.category": "inactive"
  }
]

Which outcome was entered for the molecule CN(Cc1ccc(C(C)(C)C)cc1)Cc1cccc2ccccc12 in this test?
inactive

Which outcome was entered for the molecule COC(C)OC in this test?
inactive

Which outcome was entered for the molecule Nc1ncn([C@H]2C[C@H](O)[C@@H](CO)O2)c(=O)n1 in this test?
active

Which outcome was entered for the molecule Nc1ccccc1S(=O)(=O)c1ccccc1 in this test?
inactive

Which outcome was entered for the molecule NCCCN1CCOCC1 in this test?
inactive

Measured values drawn from PubChem BioAssay (Tox21) for this set.
